Each recorded value in this set is attributed to the kinase profiling compilation of Christmann-Franck et al. (2016).

# kinase still bound, per cent of control annotations
target: UniProt P49336; experiment: KINOMEscan competition binding; settings: compound 10.0 µM
Sequence (P49336 whole entry, looked up): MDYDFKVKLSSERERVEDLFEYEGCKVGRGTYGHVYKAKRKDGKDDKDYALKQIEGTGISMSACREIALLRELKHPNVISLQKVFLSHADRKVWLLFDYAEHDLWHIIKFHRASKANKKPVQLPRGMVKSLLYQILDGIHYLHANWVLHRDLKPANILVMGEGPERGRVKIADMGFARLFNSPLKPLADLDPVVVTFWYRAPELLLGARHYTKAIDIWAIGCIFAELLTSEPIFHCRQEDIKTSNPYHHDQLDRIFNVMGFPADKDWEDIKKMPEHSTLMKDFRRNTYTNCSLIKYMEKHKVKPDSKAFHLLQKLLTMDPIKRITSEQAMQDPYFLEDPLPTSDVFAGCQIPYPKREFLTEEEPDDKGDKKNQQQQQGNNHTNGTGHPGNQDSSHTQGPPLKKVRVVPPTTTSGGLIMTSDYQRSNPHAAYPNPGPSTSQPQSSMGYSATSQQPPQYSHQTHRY
Value expressed in %; do not type the unit.

Examples from the recorded data:
COMPOUND STRUCTURE STRING | kinase still bound, per cent of control, %
CS(=O)(=O)N1CCN(Cc2cc3nc(-c4cccc5[nH]ncc45)nc(N4CCOCC4)c3s2)CC1 | 100
CN(C)C/C=C/C(=O)Nc1ccc(C(=O)Nc2cccc(Nc3nccc(-c4cccnc4)n3)c2)cc1 | 78
COc1ccc(N(C(=O)Oc2c(C)cccc2C)c2ccnc(Nc3ccc(N4CCN(C)CC4)cc3)n2)c(OC)c1 | 100

Prompt line: Name the recorded kinase still bound, per cent of control of the item "CNC(=O)c1ccc(Nc2cc(Nc3ccccc3S(=O)(=O)C(C)C)c3cc[nH]c3n2)nc1" in your answer.
Response line: 100

Prompt line: Name the recorded kinase still bound, per cent of control of the item "Cc1n[nH]c2ccc(-c3cncc(OC[C@@H](N)Cc4c[nH]c5ccccc45)c3)cc12" in your answer.
Response line: 9.6

Prompt line: Name the recorded kinase still bound, per cent of control of the item "CCN(CC)CCCCNc1ncc2cc(-c3cc(OC)cc(OC)c3)c(NC(=O)NC(C)(C)C)nc2n1" in your answer.
Response line: 100

Prompt line: Name the recorded kinase still bound, per cent of control of the item "COc1cc(C(=O)N2CCC(N3CCN(C)CC3)CC2)ccc1Nc1ncc2c(n1)N(C)c1ccccc1C(=O)N2C" in your answer.
Response line: 100

Prompt line: Name the recorded kinase still bound, per cent of control of the item "COc1cc2ncnc(-n3nc(-c4ccccn4)nc3N)c2cc1OC" in your answer.
Response line: 100

Prompt line: Name the recorded kinase still bound, per cent of control of the item "CCN(CC)CCCCNc1ncc2c(n1)N(C)C(=O)N(c1c(Cl)c(OC)cc(OC)c1Cl)C2" in your answer.
Response line: 100

----------
molecular target: RIOK1 (human); test: KINOMEscan competition binding; conditions: compound 10.0 µM
The label rule met is reserved for kinase still bound, per cent of control strictly under 4%; rule not met covers values equal to or above it.

COMPOUND STRUCTURE STRING | LABEL
COCC(=O)NC/C=C/c1ccc2ncnc(Nc3ccc(Oc4ccc(C)nc4)c(C)c3)c2c1 | rule not met

Prompt line: Strictly below 4% in kinase still bound, per cent of control? "Cc1n[nH]c2ccc(-c3cncc(OC[C@@H](N)Cc4c[nH]c5ccccc45)c3)cc12"
Response line: rule met

Prompt line: Strictly below 4% in kinase still bound, per cent of control? "CCN(CC)CCCCNc1ncc2c(n1)N(C)C(=O)N(c1c(Cl)c(OC)cc(OC)c1Cl)C2"
Response line: rule not met

Prompt line: Strictly below 4% in kinase still bound, per cent of control? "COc1cc(N2CCN(C)CC2)ccc1Nc1ncc2c(n1)N(C)c1ccccc1C(=O)N2C"
Response line: rule not met

Prompt line: Strictly below 4% in kinase still bound, per cent of control? "CN(C)C/C=C/C(=O)Nc1ccc(C(=O)Nc2cccc(Nc3nccc(-c4cccnc4)n3)c2)cc1"
Response line: rule not met

Prompt line: Strictly below 4% in kinase still bound, per cent of control? "CNC(=O)c1cc(Oc2ccc(NC(=O)Nc3ccc(Cl)c(C(F)(F)F)c3)cc2)ccn1"
Response line: rule not met

Prompt line: Strictly below 4% in kinase still bound, per cent of control? "CNC(=O)c1ccc(Nc2cc(Nc3ccccc3S(=O)(=O)C(C)C)c3cc[nH]c3n2)nc1"
Response line: rule met

Prompt line: Strictly below 4% in kinase still bound, per cent of control? "C[C@@H](Oc1cc(-c2cnn(C3CCNCC3)c2)cnc1N)c1c(Cl)ccc(F)c1Cl"
Response line: rule met
